Observed GI50 for HCT-15, reported per entry below.

{"MOLECULE": "Cc1cc(C)c2c(=N)c3ccccc3n(CCCCCCO)c2n1", "GI50": "2.88 µM"}
{"MOLECULE": "CN(C)/N=N/c1nc2c(c(=O)n(C)c(=O)n2C)n1C", "GI50": "> 100 µM"}
{"MOLECULE": "CSCCC(N)P(C)(=O)O (stereo unspecified)", "GI50": "> 100 µM"}
{"MOLECULE": "Cc1nc2c(=O)n(C)c(=O)n(C)c2o1", "GI50": "> 100 µM"}
{"MOLECULE": "Cc1cn(C2OC(CO[Si](C)(C)C(C)(C)C)C(N(C)O[Si](C)(C)C(C)(C)C)C2[Se]c2ccccc2)c(=O)[nH]c1=O (stereo unspecified)", "GI50": "4.59 µM"}
{"MOLECULE": "NS(=O)(=O)c1cc(S(N)(=O)=O)c(NC(=O)Nc2ccc(Cl)c(Cl)c2)c(Cl)c1Cl", "GI50": "> 100 µM"}
